assay: Henry solubility constant Hcp at 293 K (mol/(m3 Pa)); conditions: reference: Murphy et al. (1987)
Henry solubility constant Hcp at 293 K below 0.04 gives false; Henry solubility constant Hcp at 293 K at or above it gives true.

smiles: Clc1cc(Cl)c(-c2cc(Cl)c(Cl)cc2Cl)cc1Cl
category: true

smiles: Clc1ccc(Cl)c(-c2c(Cl)ccc(Cl)c2Cl)c1Cl
category: true

smiles: Clc1cccc(-c2cccc(Cl)c2Cl)c1Cl
category: true

smiles: Clc1ccccc1-c1c(Cl)cccc1Cl
category: false

smiles: Clc1ccc(Cl)c(-c2ccc(Cl)c(Cl)c2)c1
category: true

smiles: Clc1ccc(-c2cc(Cl)c(Cl)cc2Cl)cc1Cl
category: true
